// values below are reported growth inhibition
- ASSAY SUMMARY: NCI Yeast Anticancer Drug Screen. Data for the sgs1 mgt1 strain (AID 161);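 note: 0% = growth of cultures given vehicle only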
- DETAILS: S. cerevisiae sgs1 mgt1 strain, active compounds read high; at 50.0 µM unless noted
Compounds without any hit were thinned out: in the full panel of roughly 79,000, 15% have a hit. Where a SMILES comes first, the peptide text is derived from it. The star is where a group is joined. Cbz = O=C(OCc1ccccc1)*; NHNH2 = NN*
PROPERTY LABEL: growth inhibition (%)

compound="CCCCN(CCCC)C(=O)C(=O)C(C(=O)c1ccc(OC)cc1)c1ccc(OC)cc1 (stereo not given)" unit=% reported_result=-11.8
compound=Cn1c(=O)[nH]c2ccc(Cl)cc2c1=O unit=% reported_result=-3.25
compound=Cc1nc2cnc(=Nc3ccccc3)nc-2n(-c2ccccc2)c1C unit=% reported_result=-0.65
compound="COc1ccc(C(C)c2cc(N=NC(N)=O)c(OC)cc2O)cc1 (stereo not given)" unit=% reported_result=-4.1
compound=CC(=O)OC(C)(C)C#CC(C)(C)OC(C)=O unit=% reported_result=-15.4
compound=COC(=O)c1ccc(SCCC(=O)CN2C(=O)c3ccccc3C2=O)cc1 unit=% reported_result=17.1
compound="NC(=O)c1c(NC=O)ncn1C1OCC(O)C(O)C1O (stereo not given)" unit=% reported_result=2
compound="C=C(C)C1CCC2(C)C1CCC1(C)C2CCC2C3(C)C4OC(OC4=O)C(C)(C)C3CCC21C (stereo not given)" unit=% reported_result=11.8
compound="CN=C1CC2c3cc(OC)c(OC)cc3CCN2C2=C1C(=O)CC(C)(C)C2 (stereo not given)" unit=% reported_result=15.1
compound=O=C1NCCCc2nonc21 unit=% reported_result=7.9
compound=O=C1OCC/C1=C\c1ccc2c(c1)OCO2 unit=% reported_result=20
compound=COc1ccc(C2c3c(ccc4ccccc34)Oc3ccc4ccccc4c32)cc1 unit=% reported_result=7.5
compound="CC(C)N(C(=O)C12C3C4C1C1C2C3C41C(=O)N(C(C)C)C(C)C)C(C)C (stereo not given)" unit=% reported_result=-12.9
compound=O=C(c1ccccc1)N1c2ccc([N+](=O)[O-])cc2Sc2cc([N+](=O)[O-])ccc21 unit=% reported_result=33.6
compound=Clc1nc(-c2ccccc2)ns1 unit=% reported_result=-12.7
compound="CC1(C)C2CCC3(C2)CS(=O)(=O)N2OC231 (stereo not given)" unit=% reported_result=-31.1
compound=CC(=O)N1CCC(/C(C)=N/O)CC1 unit=% reported_result=-12.6
compound=CN(C)/C=N/NC(=O)/C(C#N)=C/N(C)C unit=% reported_result=-8.15
compound=Clc1cccc(NC2=NCCN=C(Nc3cccc(Cl)c3Cl)SS2)c1Cl unit=% reported_result=-0.75
compound=COc1ccc(N2CC[N+](c3ccc(N(C)C)cc3)=C2C2=[N+](c3ccc(N(C)C)cc3)CCN2c2ccc(OC)cc2)cc1 unit=% reported_result=-17.4
compound=Cc1ccc(O)c(C=NCCN=Cc2cc(C)ccc2O)c1.[Cu+2] unit=% reported_result=6.15
compound=O=C(Cc1ccccc1)SC(=O)Cc1ccccc1 unit=% reported_result=18.6
compound=Fc1cccc2c(SCc3ccc(Cl)cc3Cl)cnnc12 unit=% reported_result=3.25
compound=CC(C)C(=O)NCC[C@@H](CNC(=O)OC(C)(C)C)NC(=O)OC(C)(C)C unit=% reported_result=38.6
compound="CC(O)C1(O)CCCCC1 (stereo not given)" unit=% reported_result=-2.05
compound=COc1cccc(C#CC(=O)O)c1 unit=% reported_result=-18.9
compound="CC(Cl)S(=O)(=O)c1ccccc1 (stereo not given)" unit=% reported_result=-17.9
compound="O=S1(=O)CCC(c2ccccc2)C1 (stereo not given)" unit=% reported_result=-13.8
compound=CC1=NN(C(=O)c2ccc(Cl)cc2)C(=O)/C1=C/c1cccc([N+](=O)[O-])c1 unit=% reported_result=-44.9
compound=O=C(Cc1ccccc1)NCCCN(CCCCN(CCCNC(=O)Cc1ccccc1)C(=O)OCc1ccccc1)C(=O)OCc1ccccc1 unit=% reported_result=-2.7
compound="CC(=O)OC(C(=O)NNC(=O)OC(C)(C)C)c1ccccc1 (stereo not given)" unit=% reported_result=-38
compound="NC(=O)C(N)CC12CC3CC(CC(C3)C1)C2 (stereo not given)" unit=% reported_result=-10.6
compound="CCOC(=O)CCC(NC(=O)OCc1ccccc1)C(=O)NC(CCC(=O)OCC)C(=O)NN (stereo not given) (Cbz-Glu(OEt)-Glu(OEt)-NHNH2; configuration not given here)" unit=% reported_result=2.5
compound="O=C(O)C1CC1c1ccc2c(c1)OCO2 (stereo not given)" unit=% reported_result=7.2
compound=C=C1N(C=O)C(C)(C)N(O)C1(C)C unit=% reported_result=15.6

Hello, the source for this data is PubChem BioAssay (NCI), in case you need it.
